For each record, write down the corresponding self-aminoacylation.
tested on: biotinyl-Val-oxazolone; assay: self-aminoacylation, catalytic enhancement (BVO) (fold over background); higher = more active; k-Seq, kA / k0A0; sequences stand for … in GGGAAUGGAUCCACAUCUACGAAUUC…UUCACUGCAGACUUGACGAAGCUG
Fewer inactive variants are shown than the library holds.
Give bare numbers.

AUUACGCUGGUCAGCGAGUGA [Fam2.1 aminoacylation ribozyme variant]
2.4
AAGUGGGCUAAUAGUCGCAAG [Fam3.1 aminoacylation ribozyme variant]
1.32
AUUAUCCUGGUCAUCGUGUGA [Fam2.1 aminoacylation ribozyme variant]
2.05
AAGUUUGCUAAUAAUCGAAAG [Fam3.1 aminoacylation ribozyme variant]
0.764
AUUACCCUGGUCAUCGAGAGU [Fam2.1 aminoacylation ribozyme variant]
1.02

Give me self-aminoacylation for each of these sequences, listed below.
1. CCACACGUCAAUCAAUCGGUC [Fam1B.1 aminoacylation ribozyme variant]
2. CUACUUCCAACAAUCCGUCUG [Fam1A.1 aminoacylation ribozyme variant]

Return:
[1.1, 0.886]

# return self-aminoacylation for each item in the list
1. UCACGCUUCAAGCAAUCGGUC [Fam1B.1 aminoacylation ribozyme variant]
2. CUUACCUUGGUCAUCGAGUGA [Fam2.1 aminoacylation ribozyme variant]
3. UUUCACCUAGGUCAUGGGGUG [Fam2.2 aminoacylation ribozyme variant]
4. AAGUUUGCUAAUAAUCGGAAG [Fam3.1 aminoacylation ribozyme variant]
5. CUAUUUCAAACAAUGGGUCUG [Fam1A.1 aminoacylation ribozyme variant]
6. CCACACUUCAAGCCAUUGGUC [Fam1B.1 aminoacylation ribozyme variant]
7. GUUCUUCAAACAAUCGGUCUG [Fam1A.1 aminoacylation ribozyme variant]

Return:
[1.7, 2.66, 2.96, 0.923, 0.81, 1.09, 0.824]

----------
tested on: biotinyl-Leu-oxazolone; assay: self-aminoacylation, catalytic enhancement (BLO) (fold over background); higher = more active; k-Seq, kA / k0A0; sequences stand for … in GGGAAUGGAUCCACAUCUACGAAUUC…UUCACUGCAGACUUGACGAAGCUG
This sample holds only a part of the variants without activity.
Label Satisfied for high-side self-aminoacylation (at or above 3) and Not satisfied for low-side self-aminoacylation (below it).

AAGUUUCCUAAGAGUCGCAAG [Fam3.1 aminoacylation ribozyme variant]
Not satisfied

Enquiry: Hello, I need to know if CCACACUUCCAGCAAUCGGCC [Fam1B.1 aminoacylation ribozyme variant] has measured self-aminoacylation not below 3. Thanks!
Return: Not satisfied

Enquiry: Reported self-aminoacylation reaches at least 3 for AUUCACCUAGAUCAUAGGGUG [Fam2.2 aminoacylation ribozyme variant] ?
Return: Satisfied

Enquiry: Hi team, for CCACACUUCACGCAACCGGUC [Fam1B.1 aminoacylation ribozyme variant] , is the recorded self-aminoacylation at or above 3?
Return: Not satisfied

Enquiry: Say whether AUUCACCUUGGACAUCGGGUG [Fam2.2 aminoacylation ribozyme variant] shows self-aminoacylation of 3 or more.
Return: Satisfied

Enquiry: Could you please find out whether AUUGCCCUGGUCAUCGAGUGC [Fam2.1 aminoacylation ribozyme variant] has self-aminoacylation that meets 3 or exceeds it?
Return: Satisfied

Enquiry: Decide: is the reported value of self-aminoacylation for AAGUUUGCUAUUGGUCGCAAG [Fam3.1 aminoacylation ribozyme variant] equal to or greater than 3?
Return: Not satisfied
